# Test system: Brain
# assay summary: Biodistribution in ICR mouse brain at 5 to 10 uCi, iv after 2 mins
# Type: ADME, organism-based
# test conditions: in vivo
Recorded Drug uptake, one value per entry.
Give just the numeric value; % ID/g need not be written.

Here is how some compounds turned out for Drug uptake.
CNc1ccc(C#Cc2ccc(OCCOCCOCC[18F])cc2)cc1	4.55
CN(C)c1ccc(C#Cc2ccc(OCCOCC[18F])cc2)cc1	5.41
CNc1ccc(C#Cc2ccc(OCCOCC[18F])cc2)cc1	4.42

IN: Any idea what Drug uptake was measured for `CN(C)c1ccc(C#Cc2ccc(OCCOCCOCC[18F])cc2)cc1` ?
OUT: 6.78

* * *

# Tested on: Spleen
# assay summary: Biodistribution in ICR mouse spleen at 5 to 10 uCi, iv after 2 mins
# Format: ADME, organism-based
# test conditions: in vivo
The following molecules are shown together with reported Drug uptake values.
Include the unit after the number when you answer.

Some solved entries appear below for comparison.
CN(C)c1ccc(C#Cc2ccc(OCCOCCOCC[18F])cc2)cc1	4.61 % ID/g
CNc1ccc(C#Cc2ccc(OCCOCC[18F])cc2)cc1	3.74 % ID/g
CN(C)c1ccc(C#Cc2ccc(OCCOCC[18F])cc2)cc1	5.12 % ID/g

Query molecule follows.
IN: # input molecule: `CNc1ccc(C#Cc2ccc(OCCOCCOCC[18F])cc2)cc1` ; wanted: its Drug uptake
OUT: 2.69 % ID/g

* * *

# Lookup of reported Drug uptake keyed by entry
# System: Kidney
# assay summary: Biodistribution in ICR mouse kidney at 5 to 10 uCi, iv after 2 mins
# Type: ADME, organism-based
# test conditions: in vivo
Give the number; % ID/g is assumed, so skip it.

For orientation, consider the following solved cases.
CNc1ccc(C#Cc2ccc(OCCOCCOCC[18F])cc2)cc1	4.74
CN(C)c1ccc(C#Cc2ccc(OCCOCC[18F])cc2)cc1	12.9
CN(C)c1ccc(C#Cc2ccc(OCCOCCOCC[18F])cc2)cc1	12.4

// below: Drug uptake requested for another compound
IN: What value of measured Drug uptake is listed for `CNc1ccc(C#Cc2ccc(OCCOCC[18F])cc2)cc1` ?
OUT: 5.55

* * *

# Test system: Brain
# assay summary: Biodistribution in ICR mouse brain at 5 to 10 uCi, iv after 2 hrs
# Assay type: ADME, organism-based
# test conditions: in vivo
endpoint name: Drug uptake

CNc1ccc(C#Cc2ccc(OCCOCC[18F])cc2)cc1	0.82 % ID/g
CN(C)c1ccc(C#Cc2ccc(OCCOCCOCC[18F])cc2)cc1	0.42 % ID/g
CN(C)c1ccc(C#Cc2ccc(OCCOCC[18F])cc2)cc1	1.34 % ID/g

Alright, here's another molecule for you.
IN: For the molecule `CNc1ccc(C#Cc2ccc(OCCOCCOCC[18F])cc2)cc1` , what Drug uptake is on record?
OUT: 0.38 % ID/g

* * *

# Test system: Zone of skin
# assay summary: Biodistribution in ICR mouse skin at 5 to 10 uCi, iv after 2 hrs
# Assay type: ADME, organism-based
# test conditions: in vivo
endpoint name: Drug uptake (% ID/g)
# unit: % ID/g | format: bare number

Check out these entries, answers already filled in.
CN(C)c1ccc(C#Cc2ccc(OCCOCCOCC[18F])cc2)cc1	0.68
CNc1ccc(C#Cc2ccc(OCCOCCOCC[18F])cc2)cc1	0.6
CN(C)c1ccc(C#Cc2ccc(OCCOCC[18F])cc2)cc1	1.67

IN: Please report the recorded Drug uptake for `CNc1ccc(C#Cc2ccc(OCCOCC[18F])cc2)cc1` .
OUT: 2.04
